Where these numbers come from: the OligoGym collection

molecular target: Tau; experiment: rat primary cortical neurons, FLIPR, 25 uM ASO
Bases are written 5' to 3'; sugars and linkages follow in the same order, as letters with counts (s phosphorothioate, o phosphodiester; PS: all linkages phosphorothioate). The collection does not say whether C is 5-methylated. l = locked nucleic acid (LNA); d = 2'-deoxy (DNA)
Outcome measure: calcium oscillation score

Solved cases (4 shown):
GCGTGATCTTCCAT (sugars l3 d8 l3, PS)	182 % of control
AATCAATTCTCATTTCAACC (sugars l4 d13 l3, PS)	63.9 % of control
GTCCCGAGCCAAAGCC (sugars l3 d10 l3, PS)	31.3 % of control
AGGTCACCTTGCTCAG (sugars l3 d10 l3, PS)	52.8 % of control

Query :: Request - read-out calcium oscillation score | tested on Tau | sequence ACCTTACCACTTTCAG (sugars l3 d10 l3, PS)
Result :: 104 % of control

Query :: Provide value of calcium oscillation score for this record tested with Tau: TCCCAACTCTTTGAACAC (sugars l3 d13 l2, PS)
Result :: 83.5 % of control
